The measured values listed here are drawn from patent US20240270821A1.

Target: hGLP-1R (Homo sapiens, UniProt P43220)
Sequence (P43220 24-463): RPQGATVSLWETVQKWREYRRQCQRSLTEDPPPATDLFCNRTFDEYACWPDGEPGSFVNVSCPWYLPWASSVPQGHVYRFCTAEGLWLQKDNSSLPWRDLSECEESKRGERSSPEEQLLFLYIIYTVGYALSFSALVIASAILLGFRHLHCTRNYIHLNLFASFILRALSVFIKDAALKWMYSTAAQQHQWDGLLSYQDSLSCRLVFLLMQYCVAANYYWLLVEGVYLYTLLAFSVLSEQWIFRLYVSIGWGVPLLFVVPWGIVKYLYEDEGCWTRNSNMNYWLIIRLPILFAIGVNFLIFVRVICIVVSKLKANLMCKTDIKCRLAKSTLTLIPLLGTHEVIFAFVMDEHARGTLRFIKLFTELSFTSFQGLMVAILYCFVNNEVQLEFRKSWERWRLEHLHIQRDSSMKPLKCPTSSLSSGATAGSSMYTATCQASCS
Assay: cell-based or functional assay
This listing pairs binders with measured log10 of cAMP Rel EC50 (in the presence of 1% HSA).
property_label: log10 of cAMP Rel EC50 (in the presence of 1% HSA) (log10 of the value in nM)

binder: YXQGTFTSDXSXXLDKKAQXAFIEYLLEAGPSSGAPPPSGX (non-natural residues; lipidated Lys; C-terminal amide; synthetic construct; SITE 2: note = 2-Aminoisobutyric Acid; SITE 10: note = 3-(4-Pyridyl)-L-alanine; SITE 12: note = L-ornithine; SITE 13: note = alpha-methyl-leucine; SITE 17: note = Lysine is chemically modified through conjugation of the epsilon-amino group of the Lysine side chain with (2-[2-(2-) [Example 274]
meas_value: 2.75
--
binder: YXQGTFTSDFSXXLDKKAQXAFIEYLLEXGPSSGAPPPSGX (acylated Lys γGlu-AEEA-γGlu-C18 diacid; non-natural residues; amide; synthetic construct; SITE 2: note = 2-Aminoisobutyric Acid; SITE 12: note = L-ornithine; SITE 13: note = alpha-methyl-leucine; SITE 17: note = Lysine is chemically modified through conjugation of the epsilon-amino group of the Lysine side chain with (gamma-Glu)-(2-[2-(2-Amino-ethoxy)-ethoxy]-acetyl)) [Example 277]
meas_value: 2.81
--
binder: YXQGTXTSDXSIXLDKKAQXAFIEYLEEGGPSSGEPPPSGSEE (Lys acylated (γ-Glu)2-C18 diacid; non-natural residues; C-terminal amide; synthetic construct; SITE 2: note = 2-Aminoisobutyric Acid; SITE 6: note = alpha-methyl-2-fluoro-L-phenylalanine; SITE 10: note = 3-(4-Pyridyl)-L-alanine; SITE 13: note = alpha-methyl-leucine; SITE 17: note = Lysine is chemically modified through conjugation of the epsilon-amino group of the Lysine) [Example 630]
meas_value: 1.87
--
binder: YXQGTXTSDXXILLDXKAQXXFIEYLIEGGPSSGEPPPEGEEE (non-natural residues; C18 diacid-(γGlu)2 on Lys; C-terminal amide; synthetic construct; SITE 2: note = 2-Aminoisobutyric Acid; SITE 6: note = alpha-methyl-2-fluoro-L-phenylalanine; SITE 10: note = 3-(4-Pyridyl)-L-alanine; SITE 11: note = alpha-methyl-L-serine; SITE 16: note = L-ornithine; SITE 17: note = Lysine is chemically modified through conjugation of the epsi) [Example 606]
meas_value: 1.73
--
binder: YXQGTFTSDXSKXLDKKAQXAFIEYLIAXGESSGEPPPSGS (non-natural residues (Aib, 4Pal, αMeL); lipidated K; C-terminal amide; synthetic construct; SITE 2: note = 2-Aminoisobutyric Acid; SITE 10: note = 3-(4-Pyridyl)-L-alanine; SITE 13: note = alpha-methyl-leucine; SITE 17: note = Lysine is chemically modified through conjugation of the epsilon-amino group of the Lysine side chain with (2-[2-(2-Amino-ethoxy)-ethoxy]-acetyl)) [Example 287]
meas_value: 2.75
--
binder: YXQGTXTSDXXIXLDXKAQXEFIEXLIEGGPPSXXPPPSGGGE (Lys acylated with AEEA-γGlu-C18 diacid; non-natural residues; C-amide; synthetic construct; SITE 2: note = 2-Aminoisobutyric Acid; SITE 6: note = alpha-methyl-2-fluoro-L-phenylalanine; SITE 10: note = 3-(4-Pyridyl)-L-alanine; SITE 11: note = alpha-methyl-L-serine; SITE 13: note = alpha-methyl-leucine; SITE 16: note = L-ornithine; SITE 17: note = Lysine is chemically mo) [Example 1199]
meas_value: 1.81
